Data provenance is ChEMBL document CHEMBL5370686.

solubility at 1 h overview
assay: Solubility of compound in FeSSIF at pH 5.8 incubated for 1 hr by LC/MS analysis; format: physicochemical
State just the number; it will be interpreted in µM.

{"columns": ["Record Smiles", "solubility at 1 h (µM)"],
 "data": [
  ["C[C@H]1C[C@@H](N2C(=N)N[C@](C)(c3cccc(-c4ccc(F)cc4F)c3Cl)CC2=O)CCS1(=O)=O", 1130]
]}

Lookup: I am curious: what solubility at 1 h value has been reported for C[C@H]1C[C@@H](N2C(=N)N[C@](C)(c3cccc(NC(=O)c4cccc(C#N)c4)c3Cl)CC2=O)CCO1 ?
Found: 1020

Lookup: Param item = C[C@H]1C[C@@H](N2C(=N)N[C@](C)(c3cccc(-c4ccccc4Cl)c3Cl)CC2=O)CCO1 ; retrieve measured solubility at 1 h.
Found: 562

Lookup: What value of measured solubility at 1 h is listed for C[C@H]1C[C@@H](N2C(=N)N[C@](C)(c3cccc(-c4ccc(Cl)cc4Cl)c3Cl)CC2=O)CCO1 ?
Found: 69

Lookup: // query solubility at 1 h value for entry C[C@H]1C[C@@H](N2C(=N)N[C@](C)(c3cccc(-c4ccc(F)cc4F)c3Cl)CC2=O)CCO1
Found: 1010

* * *

target: Plasmepsin X (Plasmodium falciparum (isolate 3D7), UniProt Q8IAS0); assay: Inhibition of Plasmodium falciparum Plasmepsin X using Dabcyl-GSMLEVENDAEG-EDANS as substrate preincubated for 30 mins followed by substrate addition and measured every 2 mins for 30 mins by FRET assay
Sequence (Q8IAS0 whole entry): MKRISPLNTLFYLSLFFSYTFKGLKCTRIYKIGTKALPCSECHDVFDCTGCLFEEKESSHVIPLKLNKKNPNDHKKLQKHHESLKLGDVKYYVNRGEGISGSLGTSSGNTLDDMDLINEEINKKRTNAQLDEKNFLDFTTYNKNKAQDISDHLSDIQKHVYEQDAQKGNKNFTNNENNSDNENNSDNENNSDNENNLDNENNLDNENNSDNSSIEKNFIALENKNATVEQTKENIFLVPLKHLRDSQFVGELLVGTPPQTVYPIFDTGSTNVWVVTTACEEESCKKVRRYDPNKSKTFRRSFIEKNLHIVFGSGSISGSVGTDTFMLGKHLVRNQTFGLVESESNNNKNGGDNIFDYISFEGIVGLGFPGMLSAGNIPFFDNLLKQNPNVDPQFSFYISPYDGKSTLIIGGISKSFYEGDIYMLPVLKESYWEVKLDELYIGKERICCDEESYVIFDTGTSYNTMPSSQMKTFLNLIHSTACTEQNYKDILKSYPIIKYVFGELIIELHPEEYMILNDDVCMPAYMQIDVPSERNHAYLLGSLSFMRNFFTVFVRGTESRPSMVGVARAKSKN
Observed Property: IC50 (µM)
# number only, unit µM dropped from output

{"columns": ["Record Smiles", "System Tested", "Experimental Result"],
 "data": [
  ["C[C@H]1C[C@@H](N2C(=N)N[C@](C)(c3cccc(-c4ccc5ncn(CC(F)(F)F)c5c4)c3Cl)CC2=O)CCO1", "Plasmepsin X (Plasmodium falciparum (isolate 3D7), UniProt Q8IAS0)", 0.0112],
  ["C[C@H]1C[C@@H](N2C(=N)N[C@](C)(c3cccc(-c4ccc(F)cc4F)c3Cl)CC2=O)CCO1", "Plasmepsin X (Plasmodium falciparum (isolate 3D7), UniProt Q8IAS0)", 0.0094]
]}

Lookup: # returns recorded IC50 (system: Plasmepsin X (Plasmodium falciparum (isolate 3D7), UniProt Q8IAS0)) for C[C@H]1C[C@@H](N2C(=N)N[C@](C)(c3cccc(-c4cncc(Cl)c4)c3Cl)CC2=O)CCO1
Found: 0.0088

Lookup: Short answer please: IC50, Plasmepsin X (Plasmodium falciparum (isolate 3D7), UniProt Q8IAS0), entry C[C@H]1C[C@@H](N2C(=N)N[C@](C)(c3cccc(-c4cccc(Cl)c4)c3Cl)CC2=O)CCO1
Found: 0.0077

Lookup: Query IC50 on Plasmepsin X (Plasmodium falciparum (isolate 3D7), UniProt Q8IAS0) for C[C@H]1C[C@@H](N2C(=N)N[C@](C)(c3cccc(-c4ccc(OC(F)F)nc4)c3Cl)CC2=O)CCS1(=O)=O
Found: 0.0108

Lookup: Quick check: IC50 on Plasmepsin X (Plasmodium falciparum (isolate 3D7), UniProt Q8IAS0), item C[C@H]1C[C@@H](N2C(=N)N[C@](C)(c3cccc(-c4ccc(OC(F)(F)F)cc4Cl)c3Cl)CC2=O)CCO1 ?
Found: 0.0095

Lookup: # get_value(readout= IC50, system= Plasmepsin X (Plasmodium falciparum (isolate 3D7), UniProt Q8IAS0)) for C[C@H]1C[C@@H](N2C(=N)N[C@](C)(c3cccc(-c4ccc(OC(F)(F)F)nc4)c3Cl)CC2=O)CCS1(=O)=O
Found: 0.0112

Lookup: Quick check: IC50 on Plasmepsin X (Plasmodium falciparum (isolate 3D7), UniProt Q8IAS0), item C[C@H]1C[C@@H](N2C(=N)N[C@](C)(c3cccc(-c4ccc(F)cc4F)c3Cl)CC2=O)CCS1(=O)=O ?
Found: 0.0102

Lookup: Short answer please: IC50, Plasmepsin X (Plasmodium falciparum (isolate 3D7), UniProt Q8IAS0), entry CN(C)[C@H]1C[C@@H](N2C(=N)N[C@](C)(c3cccc(-c4ccc(F)cc4F)c3Cl)CC2=O)C1
Found: 2.26

Lookup: So what IC50 did C[C@H]1C[C@@H](N2C(=N)N[C@](C)(c3cccc(-c4cnn5cccnc45)c3Cl)CC2=O)CCO1 get with Plasmepsin X (Plasmodium falciparum (isolate 3D7), UniProt Q8IAS0)?
Found: 0.0224

Lookup: Request: IC50, test system Plasmepsin X (Plasmodium falciparum (isolate 3D7), UniProt Q8IAS0), entry C[C@@]1(c2cccc(-c3ccc(F)cc3F)c2Cl)CC(=O)N([C@H]2CCC(F)(F)[C@@H](O)C2)C(=N)N1
Found: 0.0233

Lookup: Lab request: please report IC50 under test system Plasmepsin X (Plasmodium falciparum (isolate 3D7), UniProt Q8IAS0) for C[C@H]1C[C@@H](N2C(=N)N[C@](C)(c3cccc(-c4ccc(F)cc4F)c3Cl)CC2=O)CCN1C
Found: 0.263

Lookup: Reported IC50 for Plasmepsin X (Plasmodium falciparum (isolate 3D7), UniProt Q8IAS0), given C[C@H]1C[C@@H](N2C(=N)N[C@](C)(c3cccc(-c4ccccc4Cl)c3Cl)CC2=O)CCO1 ?
Found: 0.0109

Lookup: Lab note: need IC50 with Plasmepsin X (Plasmodium falciparum (isolate 3D7), UniProt Q8IAS0) for entry C[C@H]1C[C@@H](N2C(=N)N[C@](C)(c3cccc(-c4ccc(Cl)cc4Cl)c3Cl)CC2=O)CCO1 , please look it up.
Found: 0.0052

Lookup: IC50 of C[C@@]1(c2cccc(-c3cccc(Cl)c3)c2Cl)CC(=O)N([C@H]2CCOC[C@@H]2O)C(=N)N1 on Plasmepsin X (Plasmodium falciparum (isolate 3D7), UniProt Q8IAS0)?
Found: 0.0565

Lookup: I'm curious: which IC50 was measured for C[C@H]1C[C@@H](N2C(=N)N[C@](C)(c3cccc(NC(=O)c4cccc(C#N)c4)c3Cl)CC2=O)CCO1 tested on Plasmepsin X (Plasmodium falciparum (isolate 3D7), UniProt Q8IAS0)?
Found: 0.0076

Lookup: Lab note: need IC50 for C[C@@H]1C[C@H](N2C(=N)N[C@](C)(c3cccc(-c4cccc(Cl)c4)c3Cl)CC2=O)CC[C@@H]1O on Plasmepsin X (Plasmodium falciparum (isolate 3D7), UniProt Q8IAS0), anyone have it?
Found: 0.0099

Lookup: Give recorded IC50 with Plasmepsin X (Plasmodium falciparum (isolate 3D7), UniProt Q8IAS0) for the following compound: C[C@H]1C[C@@H](N2C(=N)N[C@](C)(c3cccc(-c4ccc(C5CC5)nc4)c3Cl)CC2=O)CCS1(=O)=O
Found: 0.0128

* * *

assay: AUC in Sprague-Dawley rat plasma at 1 mg/kg, iv administered via bolus at LC-MS/MS analysis; format: ADME, organism-based; parameters: dose 1 mg/kg, route iv
Observed Property: AUC
Reply with a number, then the unit it belongs to.

Lookup: Form field: reported AUC of C[C@H]1C[C@@H](N2C(=N)N[C@](C)(c3cccc(-c4ccc(OC(F)(F)F)nc4)c3Cl)CC2=O)CCS1(=O)=O
Found: 1.6 µM·h

* * *

experiment: Half-life in Sprague-Dawley rat plasma at 1 mg/kg, iv administered via bolus at LC-MS/MS analysis; type: ADME, organism-based
Observed Property: half-life (min)
Field: numeric (min). Do not append units.

Lookup: half-life for C[C@H]1C[C@@H](N2C(=N)N[C@](C)(c3cccc(-c4ccc(OC(F)(F)F)nc4)c3Cl)CC2=O)CCS1(=O)=O ?
Found: 552

* * *

system: Plasmodium falciparum; experiment: Antimalarial activity against Plasmodium falciparum 3D7 by SYBR green 1 assay; assay type: functional, organism-based
The entries below are paired with their reported FIC50.
API: value field is a number in nM; no unit string.

{"columns": ["Record Smiles", "FIC50 / nM"],
 "data": [
  ["C[C@H]1C[C@@H](N2C(=N)N[C@](C)(c3cccc(-c4ccc(C5CC5)nc4)c3Cl)CC2=O)CCS1(=O)=O", 27.1],
  ["C[C@H]1C[C@@H](N2C(=N)N[C@](C)(c3cccc(-c4cnn5cccnc45)c3Cl)CC2=O)CCO1", 131.3],
  ["C[C@H]1C[C@@H](N2C(=N)N[C@](C)(c3cccc(-c4cccc(Cl)c4)c3Cl)CC2=O)CCO1", 16.2]
]}

Let us examine a further case.
Lookup: Param item = C[C@@H]1C[C@H](N2C(=N)N[C@](C)(c3cccc(-c4cccc(Cl)c4)c3Cl)CC2=O)CC[C@@H]1O ; retrieve measured FIC50.
Found: 40.9

* * *

assay: AUC in Sprague-Dawley rat plasma at 10 mg/kg, po administered via gavage by LC-MS/MS analysis; assay type: ADME, organism-based; design: dose 10 mg/kg, route po
Observed Property: AUC (µM·h)
Give your result in µM·h as a bare value.

Lookup: Need AUC of C[C@H]1C[C@@H](N2C(=N)N[C@](C)(c3cccc(-c4ccc(OC(F)(F)F)nc4)c3Cl)CC2=O)CCS1(=O)=O , thanks.
Found: 4.68
